- MEASURED TARGET: Dual specificity calcium/calmodulin-dependent 3',5'-cyclic nucleotide phosphodiesterase 1A (Homo sapiens)
- Sequence (P54750 whole entry): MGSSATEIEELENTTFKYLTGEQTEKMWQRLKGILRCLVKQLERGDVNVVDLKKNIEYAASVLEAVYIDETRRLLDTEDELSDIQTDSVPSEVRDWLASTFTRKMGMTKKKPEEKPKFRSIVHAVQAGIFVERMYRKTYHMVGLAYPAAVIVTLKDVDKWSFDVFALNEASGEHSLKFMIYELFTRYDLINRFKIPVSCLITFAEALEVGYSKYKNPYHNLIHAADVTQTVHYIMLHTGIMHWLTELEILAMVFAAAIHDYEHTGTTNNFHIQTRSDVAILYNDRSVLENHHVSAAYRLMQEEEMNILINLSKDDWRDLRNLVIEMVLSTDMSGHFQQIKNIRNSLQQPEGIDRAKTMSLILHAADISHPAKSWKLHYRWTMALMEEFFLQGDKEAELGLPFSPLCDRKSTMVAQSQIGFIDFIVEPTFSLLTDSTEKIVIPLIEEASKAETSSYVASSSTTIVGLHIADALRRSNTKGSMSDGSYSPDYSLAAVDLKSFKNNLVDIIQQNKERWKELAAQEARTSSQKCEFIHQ
- ASSAY PROTOCOL: Inhibition of PDE1A (unknown origin)
pIC50: −log10 of the molar value.
PROPERTY MEASURED: pIC50

In [3]: df
Out[3]:
                                   compound  property_measured  data_value
0  COc1cc2c(cc1OCCN1CCCCC1)C(=O)C(Cc1cccnc1)C2 (stereo unspecified)              pIC50      < 4.30

----------
- MEASURED TARGET: Acetylcholinesterase (Electrophorus electricus) (UniProt O42275)
- Sequence (O42275 24-633 limits assumed): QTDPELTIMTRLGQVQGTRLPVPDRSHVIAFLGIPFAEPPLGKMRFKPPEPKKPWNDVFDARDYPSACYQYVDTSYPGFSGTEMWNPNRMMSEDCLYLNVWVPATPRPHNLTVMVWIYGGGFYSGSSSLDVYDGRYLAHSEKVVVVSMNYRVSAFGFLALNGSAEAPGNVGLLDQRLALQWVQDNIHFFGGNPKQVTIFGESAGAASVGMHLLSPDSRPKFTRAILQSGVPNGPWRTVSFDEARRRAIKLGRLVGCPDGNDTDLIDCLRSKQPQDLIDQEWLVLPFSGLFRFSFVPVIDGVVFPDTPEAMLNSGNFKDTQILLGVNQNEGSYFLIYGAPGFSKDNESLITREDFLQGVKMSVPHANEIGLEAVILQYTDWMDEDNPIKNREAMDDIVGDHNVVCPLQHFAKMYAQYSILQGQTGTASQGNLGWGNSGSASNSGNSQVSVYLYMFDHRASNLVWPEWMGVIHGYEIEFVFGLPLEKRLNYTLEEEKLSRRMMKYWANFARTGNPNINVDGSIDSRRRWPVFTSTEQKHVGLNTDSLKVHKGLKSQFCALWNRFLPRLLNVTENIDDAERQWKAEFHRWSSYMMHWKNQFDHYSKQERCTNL
- ASSAY PROTOCOL: Inhibition of electric eel AChE using acetylthiocholine iodide as substrate at 10 uM preincubated with enzyme for 20 mins followed by substrate addition and measured after 10 mins by Ellman's method
- COND: time 30.0 min
Classify by measured inhibition: Yes if it is equal to or exceeds 20%, No if it is smaller.

In [3]: df
Out[3]:
                                    molecule  class_label
 0  COc1cc2c(cc1OC1CCCC1)C(=O)C(Cc1cccnc1)C2 (stereo not drawn)          Yes
 1  COc1cc2c(cc1OC1CCCC1)C(=O)C(Cc1ccncc1)C2 (stereo not drawn)           No
 2  COc1cc2c(cc1OCC(C)C)C(=O)C(Cc1ccncc1)C2 (stereo not drawn)           No
 3  COc1cc2c(cc1OCC1CC1)CC(Cc1ccncc1)C2=O (stereo not drawn)          Yes
 4  COc1cc2c(cc1OCC(C)C)CC(CC1CCNCC1)C2=O (stereo not drawn)           No
 5  COc1cc2c(cc1OC1CCCC1)C(=O)/C(=C/c1cccnc1)C2          Yes
 6  COc1cc2c(cc1OCC1CC1)C(=O)C(Cc1ccncc1)C2 (stereo not drawn)          Yes
 7  COc1cc2c(cc1OC1CCCC1)CC(CC1CCNCC1)C2=O (stereo not drawn)           No
 8  COc1cc2c(cc1OC1CCCC1)C(=O)C(Cc1ccccn1)C2 (stereo not drawn)           No
 9  COc1cc2c(cc1OC1CCCC1)C(=O)/C(=C/c1ccncc1)C2          Yes
10  COc1cc2c(cc1OC1CCCC1)C(=O)/C(=C/c1ccccn1)C2          Yes
11  COc1cc2c(cc1OC1CCCC1)C/C(=C\c1cccnc1)C2=O          Yes
12  COc1cc2c(cc1OCC1CC1)C(=O)C(CC1CCNCC1)C2 (stereo not drawn)          Yes
13  COc1cc2c(cc1OCC1CC1)CC(CC1CCNCC1)C2=O (stereo not drawn)          Yes
14  COc1cc2c(cc1OCC(C)C)C(=O)C(CC1CCNCC1)C2 (stereo not drawn)           No
15  COc1cc2c(cc1OC1CCCC1)C(=O)C(CC1CCNCC1)C2 (stereo not drawn)           No
16  COc1cc2c(cc1OCC(C)C)CC(Cc1ccncc1)C2=O (stereo not drawn)           No
17  COc1cc2c(cc1OC1CCCC1)CC(Cc1ccncc1)C2=O (stereo not drawn)          Yes
